Target: HLA-A*02 (Homo sapiens, UniProt P04439, D140Y/D185E/D98H/E176V/E277Q/G131W/G231S/I119V/I121R/I166T/I218V/N151K/N90K/P208A/P217A/Q86G/Q94H/R138H/R169H)
Test: UV-ligand exchange / peptide binding to MHC class I (beta2m ELISA)
Conditions: Table 10B; peptide exchange yield; HLA-A*02 peptides
readout: Peptide exchange (MHC class I binding score)

Worked set:
{"columns": ["substance", "observed_measurement"],
 "data": [
  ["46 (AMAEMKVVL; listed as Homo sapiens) [compound 46]", "“+++” (≥50 = +++)"],
  ["281 (GLLAGDRLVEV; listed as Homo sapiens) [compound 281]", "“+++” (≥50 = +++)"],
  ["126 (TLLDSPIKV; listed as Homo sapiens) [compound 126]", "“+++” (≥50 = +++)"],
  ["172 (SLLNFLQHL; listed as Homo sapiens) [compound 172]", "“+++” (≥50 = +++)"],
  ["247 (KLLDTMVDTFL; listed as Homo sapiens) [compound 247]", "“++++” (≥75% = ++++)"],
  ["78 (LLIDDEYKV; listed as Homo sapiens) [compound 78]", "“+++” (≥50 = +++)"]
]}

Query (substance): 219 (GVMAGDIYSV; listed as Homo sapiens) [compound 219] ; field requested: Peptide exchange (MHC class I binding score)
“++++” (≥75% = ++++)

Data request, read-out Peptide exchange (MHC class I binding score), for 290 (NLIDLDDLYV; listed as Homo sapiens) [compound 290]
“++++” (≥75% = ++++)

Every entry's value here was drawn from patent US10064926B2.
